Attribution: ChEMBL document CHEMBL1125383

# method_notes: Concentration required to cause 50% relaxation of maximal contraction in circumferential rabbit aorta strips in response to KCl (100 mM)
# Format: functional, tissue-based, Oryctolagus cuniculus
# measurement_parameters: Oryctolagus cuniculus, Aorta
Kindly apply the following: rule met if IC50 is less than 600 nM, rule not met in every other case.

Past entries and their recorded results:
[
  {
    "structure_smiles_string": "COc1ccc([C@@H]2Cc3cc(C(F)(F)F)ccc3N(CCN(C)C)C(=O)[C@@H]2OC(C)=O)cc1",
    "label": "rule not met"
  },
  {
    "structure_smiles_string": "COc1ccc([C@@H]2Cc3c(C(=O)O)cccc3N(CCN(C)C)C(=O)[C@@H]2OC(C)=O)cc1",
    "label": "rule not met"
  },
  {
    "structure_smiles_string": "CSc1ccc([C@@H]2Cc3c(cccc3C(F)(F)F)N(CCN(C)C)C(=O)[C@@H]2C)cc1",
    "label": "rule not met"
  },
  {
    "structure_smiles_string": "CNC(=O)CN1C(=O)[C@H](OC(C)=O)[C@H](c2ccc(OC)cc2)Cc2c1cccc2C(F)(F)F",
    "label": "rule not met"
  },
  {
    "structure_smiles_string": "CNc1ccc([C@@H]2Cc3c(cccc3C(F)(F)F)N(CCN(C)C)C(=O)[C@@H]2C)cc1",
    "label": "rule met"
  }
]

Is the reported IC50 for COc1ccc([C@@H]2Cc3c(cccc3C(F)(F)F)N(CCN(C)C)C(=O)[C@@H]2C)cc1OC strictly below 600 nM?
rule not met

How about COc1ccc([C@@H]2Cc3c(ccc(Br)c3OC)N(CCN(C)C)C(=O)[C@@H]2OC(C)=O)cc1 ?
rule met

How about C[C@H]1C(=O)N(CCN(C)C)c2cccc(C(F)(F)F)c2C[C@H]1c1ccc(O)cc1 ?
rule met
